These data points were gathered from patent US20240132525A1.

Tested on: UniProt Q07343
Sequence (Q07343 whole entry, species assumed): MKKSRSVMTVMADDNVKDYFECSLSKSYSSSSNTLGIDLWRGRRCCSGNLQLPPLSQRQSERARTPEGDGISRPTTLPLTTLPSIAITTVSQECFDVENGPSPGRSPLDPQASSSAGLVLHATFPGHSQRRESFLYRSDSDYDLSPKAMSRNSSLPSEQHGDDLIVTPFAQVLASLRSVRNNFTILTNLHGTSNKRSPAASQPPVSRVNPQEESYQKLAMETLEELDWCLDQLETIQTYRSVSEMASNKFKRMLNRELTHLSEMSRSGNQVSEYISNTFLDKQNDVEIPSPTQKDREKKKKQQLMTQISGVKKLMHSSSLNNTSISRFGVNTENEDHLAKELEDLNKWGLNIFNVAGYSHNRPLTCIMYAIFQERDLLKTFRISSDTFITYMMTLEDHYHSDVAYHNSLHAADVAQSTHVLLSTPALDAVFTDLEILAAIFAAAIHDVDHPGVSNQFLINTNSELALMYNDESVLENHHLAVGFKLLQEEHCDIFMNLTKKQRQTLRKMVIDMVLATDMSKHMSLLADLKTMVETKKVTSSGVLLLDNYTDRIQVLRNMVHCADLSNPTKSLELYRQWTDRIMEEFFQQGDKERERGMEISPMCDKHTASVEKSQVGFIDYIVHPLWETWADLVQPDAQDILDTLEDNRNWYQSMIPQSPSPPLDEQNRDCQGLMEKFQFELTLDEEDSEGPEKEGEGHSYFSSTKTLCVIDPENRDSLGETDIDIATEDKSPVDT
Assay info: PDE4B inhibition
Format: biochemical
Reported conditions: Table 3a
pIC50: −log10 of the molar value.
Observable: pIC50

# Compound, Observable, Measured
data = [
    ("N#C[C@@H]1CCOC[C@H]1Nc1nc(Nc2cc(Cl)c3c(c2)COB3O)ncc1C(F)(F)F (relative stereo) [Example 049]", "pIC50", 6.44),
    ("N#CC1CCOCC1Nc1nc(Nc2cc(F)c3c(c2)COB3O)ncc1Cl (stereo not shown) [Example 050]", "pIC50", 6.08),
    ("Cc1cnc(Nc2ccc3c(c2)C=CB(O)O3)nc1N[C@@H]1COCC[C@H]1C#N (relative stereo) [Example 035]", "pIC50", 6.49),
    ("Cc1cnc(Nc2ccc3c(c2)C(C)(C)OB3O)nc1N[C@@H]1COCC[C@H]1C#N (relative stereo) [Example 032]", "pIC50", 6.12),
]

====

Overview of recorded IC50 for various molecules
Tested on: JAK1 (Homo sapiens (Human))
Assay info: Biochemical kinase assay (33P-ATP filter-binding), JAK1
Reported conditions: Table 3a; read-out: IC50 JAK1
Observable: IC50

# Molecule, Observable, Measured
records = [
    ("Cc1cnc(Nc2ccc3c(c2)COB3O)nc1NC1COCCC1C#N (racemic)", "IC50", "0.5 nM"),
    ("Cc1cnc(Nc2cc(Cl)c3c(c2)COB3O)nc1NC1CCCC1C#N (racemic)", "IC50", "0.7 nM"),
    ("N#C[C@@H]1CCOC[C@H]1Nc1nc(Nc2cc(Cl)c3c(c2)COB3O)ncc1F (relative stereo)", "IC50", "3.4 nM"),
    ("N#CC1CCOCC1Nc1nc(Nc2cc(F)c3c(c2)COB3O)ncc1Cl (centres unmarked)", "IC50", "0.2 nM"),
    ("Cc1cnc(Nc2cc(Cl)c3c(c2)COB3O)nc1N[C@H]1CCCC[C@@H]1C#N (single isomer, unassigned) [Example 010b]", "IC50", "22.3 nM"),
    ("Cc1cnc(Nc2cc(Cl)c3c(c2)COB3O)nc1NC1CCCC[C@@H]1C#N (single isomer, unassigned) [Example 010a]", "IC50", "0.6 nM"),
    ("Cc1cnc(Nc2ccc3c(c2)C(C(C)C)=CB(O)O3)nc1N[C@H]1COCC[C@@H]1C#N (single isomer, unassigned) [Example 039a]", "IC50", "1.1 nM"),
    ("Cc1cnc(Nc2cc(F)c3c(c2)COB3O)nc1N[C@@H]1COCC[C@H]1C#N (single isomer, unassigned) [Example 029b]", "IC50", "4 nM"),
    ("Cc1cc(Nc2ncc(Cl)c(NC3CCCCC3C#N)n2)cc2c1B(O)OC2 (centres unmarked)", "IC50", "5.9 nM"),
    ("N#C[C@@H]1CCCC[C@H]1Nc1nc(Nc2cc(Cl)c3c(c2)COB3O)ncc1F (relative stereo)", "IC50", "1.4 nM"),
    ("Cc1cnc(Nc2cc3c(c(C(F)(F)F)c2)B(O)OC3)nc1N[C@H]1CCCC[C@@H]1C#N (single isomer, unassigned) [Example 011a]", "IC50", "0.4 nM"),
    ("N#C[C@@H]1CCOC[C@H]1Nc1nc(Nc2cc(Cl)c3c(c2)COB3O)ncc1C(F)(F)F (relative stereo)", "IC50", "8.2 nM"),
    ("CC1=Cc2cc(Nc3ncc(C)c(N[C@@H]4CCCC[C@H]4C#N)n3)ccc2OB1O (relative stereo)", "IC50", "2.5 nM"),
    ("Cc1cnc(Nc2cc(Cl)c3c(c2)COB3O)nc1NC1CCCCC1C#N (racemic)", "IC50", "0.7 nM"),
]

====

Tested on: UniProtKB P23458
Assay info: Biochemical kinase assay (33P-ATP filter-binding), JAK1
Reported conditions: Table 3b, comparator compounds; read-out: IC50 JAK1
pIC50: −log10 of the molar value.
Given measured pIC50, output yes if it is greater than or equal to 8 and no if not.

# Mol smiles, Qualitative label
data = [
    ("OB1OCc2cc(Nc3ncc(Cl)c(NC4CCCC4)n3)ccc21", "yes"),
    ("OB1OCc2cc(Nc3ncc(C(F)(F)F)c(NC4CCCC4)n3)ccc21", "no"),
    ("Cc1cnc(Nc2cc(C)c3c(c2)COB3O)nc1NC1CCCC1", "yes"),
    ("CCC(CC)Nc1nc(Nc2cc(F)c3c(c2)COB3O)ncc1C", "yes"),
    ("OB1OCc2cc(Nc3ncc(F)c(NC4CCCC4)n3)ccc21", "no"),
    ("CCC(CC)Nc1nc(Nc2ccc3c(c2)COB3O)ncc1Cl", "yes"),
    ("CCC(CC)Nc1nc(Nc2ccc3c(c2)COB3O)ncc1C", "yes"),
    ("Cc1cnc(Nc2cc(Cl)c3c(c2)COB3O)nc1NC1CCCC1", "yes"),
    ("OB1OCc2cc(Nc3ncc(Cl)c(NC4CCCC4)n3)cc(F)c21", "yes"),
    ("OB1OCc2cc(Nc3ncc(C(F)(F)F)c(NC4CCCCC4)n3)ccc21", "no"),
    ("Cc1cnc(Nc2ccc3c(c2)COB3O)nc1NC1CCCCC1", "yes"),
    ("Cc1cnc(Nc2cc(Cl)c3c(c2)COB3O)nc1NC1CCCCC1", "yes"),
    ("CCC(CC)Nc1nc(Nc2cc(Cl)c3c(c2)COB3O)ncc1C", "yes"),
    ("OB1OCc2cc(Nc3nccc(NC4CCCCC4)n3)ccc21", "no"),
    ("Cc1cnc(Nc2ccc3c(c2)C(C)(C)OB3O)nc1NC1CCCC1", "yes"),
    ("Cc1cc(Nc2ncc(Cl)c(NC3CCCC3)n2)cc2c1B(O)OC2", "yes"),
    ("CCC(CC)Nc1nc(Nc2cc(C)c3c(c2)COB3O)ncc1C", "yes"),
]

====

Tested on: JAK1 (Homo sapiens (Human))
Assay info: Biochemical kinase assay (33P-ATP filter-binding), JAK1
Reported conditions: Table 3a; read-out: IC50 JAK1
From the text: Biochemical Kinase Assay Protocol (JAK) Reaction Procedure: • 1. […] Detected kinase activity by filter-binding method.
pIC50: −log10 of the molar value.

# Molecule, pIC50
measured = [
    ("N#C[C@H]1CCOC[C@@H]1Nc1nc(Nc2cc3c(c(C(F)(F)F)c2)B(O)OC3)ncc1Cl (single isomer, unassigned) [Example 042b]", 7.01),
    ("N#C[C@@H]1CCOC[C@H]1Nc1nc(Nc2cc(Cl)c3c(c2)COB3O)ncc1Cl (relative stereo) [Example 048]", 9.22),
    ("N#C[C@@H]1CCCC[C@H]1Nc1nc(Nc2cc(Cl)c3c(c2)COB3O)ncc1C(F)(F)F (relative stereo) [Example 021]", 8.57),
    ("Cc1cnc(Nc2cc(F)c3c(c2)C=CB(O)O3)nc1N[C@@H]1COCC[C@H]1C#N (single isomer, unassigned) [Example 036a]", 9.52),
    ("Cc1cnc(Nc2ccc3c(c2)C(C)(C)OB3O)nc1N[C@@H]1COCC[C@H]1C#N (relative stereo) [Example 032]", 9.22),
    ("Cc1cnc(Nc2ccc3c(c2)C=CB(O)O3)nc1N[C@@H]1CCC[C@H]1C#N (relative stereo) [Example 007]", 8.28),
    ("Cc1cnc(Nc2cc(Cl)c3c(c2)COB3O)nc1NC1COCCC1C#N (racemic) [Example 031]", 8.92),
    ("Cc1cnc(Nc2cc3c4c(c2)OCCOB4OC3)nc1N[C@@H]1CCC[C@H]1C#N (relative stereo) [Example 004]", 8.80),
    ("Cc1cnc(Nc2cc3c(c(C(F)(F)F)c2)B(O)OC3)nc1N[C@@H]1COCC[C@H]1C#N (single isomer, unassigned) [Example 033b]", 7.79),
    ("Cc1cnc(Nc2ccc3c(c2)COB3O)nc1N[C@@H]1COCC[C@H]1C#N (single isomer, unassigned) [Example 026b]", 7.33),
    ("Cc1cnc(Nc2cc3c(c(C(F)(F)F)c2)B(O)OC3)nc1N[C@H]1COC[C@@H]1C#N (single isomer, unassigned) [Example 043a]", 9.05),
    ("Cc1cnc(Nc2ccc3c(c2)C=CB(O)O3)nc1N[C@@H]1CCCC[C@H]1C#N (relative stereo) [Example 015]", 8.05),
    ("Cc1cnc(Nc2cc(F)c3c(c2)COB3O)nc1NC1COCCC1C#N (racemic) [Example 029]", 9.70),
    ("N#C[C@H]1CCOC[C@@H]1Nc1nc(Nc2cc3c(c(C(F)(F)F)c2)B(O)OC3)ncc1Cl (single isomer, unassigned) [Example 042a]", 9.40),
]

====

Tested on: JAK1 (Homo sapiens (Human), UniProt P23458)
Sequence (P23458 whole entry, species assumed): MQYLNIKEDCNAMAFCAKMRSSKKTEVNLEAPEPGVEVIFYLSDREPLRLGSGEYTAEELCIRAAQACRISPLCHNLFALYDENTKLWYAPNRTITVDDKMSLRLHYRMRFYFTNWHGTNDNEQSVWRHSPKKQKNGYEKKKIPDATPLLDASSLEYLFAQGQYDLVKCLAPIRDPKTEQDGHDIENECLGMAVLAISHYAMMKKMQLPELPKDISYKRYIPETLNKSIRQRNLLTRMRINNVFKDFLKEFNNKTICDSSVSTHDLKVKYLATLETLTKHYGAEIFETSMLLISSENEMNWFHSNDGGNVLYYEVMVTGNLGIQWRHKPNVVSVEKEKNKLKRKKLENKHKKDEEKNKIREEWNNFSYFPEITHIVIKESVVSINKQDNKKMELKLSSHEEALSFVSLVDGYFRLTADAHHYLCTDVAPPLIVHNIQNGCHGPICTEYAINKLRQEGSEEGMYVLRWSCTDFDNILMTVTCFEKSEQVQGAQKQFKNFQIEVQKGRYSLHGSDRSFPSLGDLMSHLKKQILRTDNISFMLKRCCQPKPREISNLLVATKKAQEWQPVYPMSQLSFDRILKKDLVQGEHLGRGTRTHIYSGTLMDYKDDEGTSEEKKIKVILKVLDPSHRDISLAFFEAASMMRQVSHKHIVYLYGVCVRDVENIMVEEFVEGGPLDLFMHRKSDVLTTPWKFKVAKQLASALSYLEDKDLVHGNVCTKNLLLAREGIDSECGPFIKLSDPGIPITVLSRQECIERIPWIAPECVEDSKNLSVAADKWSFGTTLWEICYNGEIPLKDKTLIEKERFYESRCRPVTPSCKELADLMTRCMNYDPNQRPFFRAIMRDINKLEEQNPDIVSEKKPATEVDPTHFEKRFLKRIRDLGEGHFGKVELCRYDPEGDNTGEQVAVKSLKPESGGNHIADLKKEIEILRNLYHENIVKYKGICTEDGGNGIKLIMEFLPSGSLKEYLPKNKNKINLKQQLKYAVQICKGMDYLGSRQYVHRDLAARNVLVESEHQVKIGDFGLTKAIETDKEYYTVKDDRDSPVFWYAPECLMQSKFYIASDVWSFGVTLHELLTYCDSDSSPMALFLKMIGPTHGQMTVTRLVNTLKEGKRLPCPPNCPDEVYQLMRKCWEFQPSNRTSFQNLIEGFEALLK
Assay info: Biochemical kinase assay (33P-ATP filter-binding), JAK1
Reported conditions: IC50 JAK1, Table 3a

# Compound, Value unit, IC50
rows = [
    ("Cc1cc(Nc2ncc(Cl)c(N[C@H]3COCC[C@@H]3C#N)n2)cc2c1B(O)OC2 (single isomer, unassigned) [Example 041a]", "nM", 0.8),
    ("Cc1cc(Nc2ncc(Cl)c(N[C@H]3COCC[C@@H]3C#N)n2)cc2c1B(O)OC2 (single isomer, unassigned) [Example 041b]", "nM", 36.2),
    ("Cc1cnc(Nc2ccc3c(c2)COB3O)nc1N[C@@H]1COCC[C@H]1C#N (single isomer, unassigned) [Example 026a]", "nM", 0.4),
]
